Below, each entry is listed alongside its reported IC50.
target: CDK2 (Homo sapiens, UniProt P24941); construct: High-Throughput Measurement of Cellular Endogenous CDK2; endogenous in cells; experiment: Inhibition of CDK2: phospho-Rb (S807/811) HTRF measurement in OVCAR3 cells, 24 h; settings: 24 h compound treatment, read-out: pRB_OVCAR3_24h

Below: 2 molecules and their reported IC50.
Molecule: O=C1CCN(c2nn(CC(F)(F)F)c3cc(C4CCN(Cc5cccc(S(=O)(=O)N6CCC(Nc7ncc(Cl)cn7)CC6)c5)CC4)ccc23)C(=O)N1
IC50: 500 to 2500 nM

Molecule: Cn1nc(N2CCC(=O)NC2=O)c2ccc(C3CCN(CC4CCN(c5cccc(S(=O)(=O)N6CCC(Nc7ncc(C(F)(F)F)cn7)CC6)c5)CC4)CC3(F)F)cc21 (stereo not drawn)
IC50: 100 to 500 nM

Here's the next entry for you.
**Q:** What value of IC50 has been reported for the following molecule? N#Cc1ccc(S(=O)(=O)N2CCC(Nc3ncc(Cl)cn3)CC2)cc1N1CCC(CN2CCN(c3ccc4c(c3)CN(C3CCC(=O)NC3=O)C4=O)CC2)CC1 (stereo not drawn)
**A:** 100 to 500 nM

---

Target: CDK2 (Homo sapiens, UniProt P24941)
Construct: High-Throughput Measurement of Cellular Endogenous CDK2; endogenous in cells
Test: Inhibition of CDK2: phospho-Rb (S807/811) HTRF measurement in OVCAR3 cells, 24 h
Details: 24 h compound treatment, read-out: pRB_OVCAR3_24h
Procedure: Inhibition of CDK2: Phospho-R^b Measurement in Cells Phosphorylation of RB protein at S807/811 were measured using HTRF phospho-RB cellular kits (Cat #64RBS807PEG) from Cisbio. On Day 1, OVCAR3 (CDK2 dependent cell line) cells were seeded into 96-well tissue-culture treated plates at 20,000 cells/well in 200 μL and incubated overnight at 37° C. in CO2 atmosphere. […] Detection plates were incubated for 4 h at room temperature and read on ClarioStar (BMG Labtech) in TR-FRET mode (665 nM and 620 nM). […]
Assay Endpoint: IC50

Compound: C[C@@H]1CN(CC2CCN(c3cccc(S(=O)(=O)N4CCC(Nc5ncc(Cl)cn5)CC4)c3)CC2)C[C@H](C)N1c1ccc2c(N3CCC(=O)NC3=O)nn(C)c2c1
IC50: 1 to 100 nM

Compound: Cn1nc(N2CCC(=O)NC2=O)c2ccc(C3CCN(Cc4cccc(S(=O)(=O)N5CCC(Nc6ncc(Cl)cn6)CC5)c4)CC3)cc21
IC50: 100 to 500 nM

**Q:** Entry under review: O=C1CCC(N2Cc3cc(N4CCN(Cc5cccc(S(=O)(=O)N6CCC(Nc7ncc(C(F)(F)F)cn7)CC6)c5)CC4)ccc3C2=O)C(=O)N1 (stereo not drawn) . Reported IC50?
**A:** 1 to 100 nM

---

target: CDK2 (Homo sapiens); construct: High-Throughput Measurement of Cellular Endogenous CDK2; endogenous in cells; host or cells: OVCAR3; test: High-throughput HTRF measurement of cellular endogenous CDK2 level (degradation, DC50/Dmax) in OVCAR3 cells, 6 h; type: cell-based; settings: 6 h compound treatment, HTRF total CDK2, read-out: DC50_OVCAR3_6h
Documented DC50 across a set of compounds

Compound: Cn1nc(N2CCC(=O)NC2=O)c2ccc(C3CCN(CC4CCN(c5cccc(S(=O)(=O)N6CCC(Nc7ncc(Cl)cn7)CC6)c5)C(=O)C4)CC3)cc21 (stereo not drawn) [Example 234]
Assay Endpoint: DC50
Test Result: 1 to 10 nM
--
Compound: N#Cc1ccc(S(=O)(=O)N2CCC(Nc3ncc(Cl)cn3)CC2)cc1N1CCC(CN2CCC(c3cccc4c3oc(=O)n4C3CCC(=O)NC3=O)CC2)CC1 (stereo not drawn) [Example 197]
Assay Endpoint: DC50
Test Result: 10 to 100 nM
--
Compound: Cn1nc(N2CCC(=O)NC2=O)c2ccc(C3CCN(CC4CCN(c5cc(F)cc(S(=O)(=O)N6CCC(Nc7ncc(OC(F)F)cn7)CC6)c5)CC4)CC3)cc21 [Example 175]
Assay Endpoint: DC50
Test Result: 10 to 100 nM
--
Compound: Cn1nc(N2CCC(=O)NC2=O)c2ccc(C3CCN(CC4CCN(c5cc(S(=O)(=O)N6CCC(Nc7ncc(Cl)cn7)CC6)ccc5C#N)CC4)CC3)c(F)c21 [Example 150]
Assay Endpoint: DC50
Test Result: 10 to 100 nM
--
Compound: Cn1nc(N2CCC(=O)NC2=O)c2ccc(C3CCN(CC4(O)CCN(c5cccc(S(=O)(=O)N6CCC(Nc7ncc(Cl)cn7)CC6)c5)CC4)CC3)cc21 [Example 162]
Assay Endpoint: DC50
Test Result: 1 to 10 nM

Continue with the next compound.
**Q:** // DC50 lookup, key: CC(C)c1cnc(NC2CCN(S(=O)(=O)c3cccc(N4CCC(CN5CCC(c6ccc7c(N8CCC(=O)NC8=O)nn(C)c7c6)CC5)CC4)c3)CC2)nc1 [Example 244]
**A:** 1 to 10 nM

---

molecular target: CDK2 (Homo sapiens, UniProt P24941); construct: High-Throughput Measurement of Cellular Endogenous CDK2; endogenous in cells; host or cells: OVCAR3; test: Inhibition of CDK2: phospho-Rb (S807/811) HTRF measurement in OVCAR3 cells, 24 h; type: cell-based; conditions: 24 h compound treatment, read-out: pRB_OVCAR3_24h
Assay Endpoint: IC50

Compound: Cn1nc(N2CCC(=O)NC2=O)c2ccc(C3CCN(Cc4cccc(S(=O)(=O)N5CCC(Nc6ncc(C(F)(F)F)cn6)CC5)c4)CC3)c(F)c21
IC50: 1 to 100 nM

**Q:** For "Cn1nc(N2CCC(=O)NC2=O)c2ccc(C3CCN(CC(C)(C)Cc4cccc(S(=O)(=O)N5CCC(Nc6ncc(C(F)(F)F)cn6)CC5)c4)CC3)cc21" , what is its reported IC50?
**A:** 1 to 100 nM

**Q:** Next up: O=C1CCC(N2Cc3cc(N4CCN(CC5CCN(c6cccc(S(=O)(=O)N7CCC(Nc8ncc(Cl)cn8)CC7)c6)CC5)CC4)c(F)cc3C2=O)C(=O)N1 (stereo not drawn)
**A:** 500 to 2500 nM

**Q:** // next record "Cn1nc(N2CCC(=O)NC2=O)c2ccc(C3CCN(Cc4cccc(S(=O)(=O)N5CCC(Nc6ncc(OC(F)F)cn6)CC5)c4)CC3)c(F)c21"
**A:** 1 to 100 nM

**Q:** Same again, this time with "Cn1nc(N2CCC(=O)NC2=O)c2ccc(C3CCN(C[C@@H]4CCCN(c5cccc(S(=O)(=O)N6CCC(Nc7ncc(OC(F)F)cn7)CC6)c5)C4)CC3)cc21"
**A:** 100 to 500 nM

**Q:** Another compound to check: "Cn1nc(N2CCC(=O)NC2=O)c2cc(F)c(C3CCN(Cc4cccc(S(=O)(=O)N5CCC(Nc6ncc(C(F)(F)F)cn6)CC5)c4)CC3)cc21"
**A:** 1 to 100 nM

---

biological target: CDK2 (Homo sapiens); construct: High-Throughput Measurement of Cellular Endogenous CDK2; endogenous in cells; assay: Inhibition of CDK2: phospho-Rb (S807/811) HTRF measurement in OVCAR3 cells, 24 h; conditions: 24 h compound treatment, read-out: pRB_OVCAR3_24h
# key: entry, value: IC50

Molecule: Cn1nc(N2CCC(=O)NC2=O)c2ccc(C3CCN(CC4CCN(c5cc(S(=O)(=O)N6CCC(Nc7ncc(C(F)(F)F)cn7)CC6)ccc5F)CC4)CC3)cc21 [Example 142]
Test Result: 1 to 100 nM
//
Molecule: Cn1nc(N2CCC(=O)NC2=O)c2ccc(C3CCN(Cc4ccc(-c5cccc(S(=O)(=O)N6CCC(Nc7ncc(Cl)cn7)CC6)c5)cc4)CC3)cc21 [Example 122]
Test Result: 1 to 100 nM
//
Molecule: O=C1CCC(n2c(=O)n(C3CCN(CC4CCN(c5cccc(S(=O)(=O)N6CCC(Nc7ncc(C(F)(F)F)cn7)CC6)c5)CC4)CC3)c3ccccc32)C(=O)N1 (stereo not drawn) [Example 171]
Test Result: 100 to 500 nM
//
Molecule: CC(Cc1cccc(S(=O)(=O)N2CCC(Nc3ncc(OC(F)F)cn3)CC2)c1)CN1CCC(c2ccc3c(N4CCC(=O)NC4=O)nn(C)c3c2)CC1 (stereo not drawn) [Example 66]
Test Result: 1 to 100 nM
//
Molecule: CC(Cc1cccc(S(=O)(=O)N2CCC(Nc3ncc(Cl)cn3)CC2)c1)CN1CCC(c2ccc3c(N4CCC(=O)NC4=O)nn(C)c3c2)CC1 (stereo not drawn) [Example 53]
Test Result: 1 to 100 nM

API: the following record is the query input.
**Q:** Which IC50 is reported for this molecule? Cn1nc(N2CCC(=O)NC2=O)c2ccc(C3CCC(CN4CCC(c5cccc(S(=O)(=O)N6CCC(Nc7ncc(C(F)(F)F)cn7)CC6)c5)CC4)CC3)cc21 (stereo not drawn) [Example 238]
**A:** 1 to 100 nM
